Value source: patent EP1816136A1

compounds and their reported IC50
study target: GPR7 (Homo sapiens, UniProt P48145)
Construct: expressed in transfected cells; host or cells: HEK293/CRE-BLA cells (AURORA), expression vector pIRES-hygro (Clontech)
Sequence (P48145 whole entry): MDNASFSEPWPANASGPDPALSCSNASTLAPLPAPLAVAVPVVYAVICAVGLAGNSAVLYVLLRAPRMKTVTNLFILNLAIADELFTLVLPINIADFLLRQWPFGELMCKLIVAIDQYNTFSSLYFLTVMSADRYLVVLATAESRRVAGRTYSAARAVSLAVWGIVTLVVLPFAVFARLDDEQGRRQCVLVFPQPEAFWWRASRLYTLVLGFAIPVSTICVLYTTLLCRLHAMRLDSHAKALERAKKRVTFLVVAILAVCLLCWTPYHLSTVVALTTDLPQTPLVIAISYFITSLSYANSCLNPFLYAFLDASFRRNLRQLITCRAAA
test protocol: Binding inhibition test with [125I]-[Phe2]-hNPW(1-23), GPR7 membrane preparation
test conditions: Table 2, membrane preparation of cells expressing GPR7
Non-standard residues stand in square brackets, D forms with d. Residues, ends and D or L forms follow the SMILES beside them. 3Abz = Nc1cccc(C(=O)O)c1; 2Abz = Nc1ccccc1C(=O)O; Ava = NCCCCC(=O)O

Use the examples below as a reference point.
>>> value_measured("CC(C)C[C@H](NC(=O)CNC(=O)[C@H](CO)NC(=O)[C@H](CC(C)C)NC(=O)[C@H](CC(C)C)NC(=O)CNC(=O)[C@H](C)NC(=O)[C@H](C)NC(=O)[C@H](CCCNC(=N)N)NC(=O)CNC(=O)CCCCNC(=O)CCCCNC(=O)c1cccc(NC(=O)[C@H](CCCCN)NC(=O)[C@H](Cc2ccc(O)cc2)NC(=O)[C@@H](N)Cc2c[nH]c3ccccc23)c1)C(N)=O [compound 17] (H-WYK[3Abz][Ava][Ava]GRAAGLLSGL-NH2)")
"0.34 nM"
>>> value_measured("CC(C)C[C@H](NC(=O)CNC(=O)[C@H](CO)NC(=O)[C@H](CC(C)C)NC(=O)[C@H](CC(C)C)NC(=O)CNC(=O)[C@H](C)NC(=O)[C@H](C)NC(=O)[C@H](CCCNC(=N)N)NC(=O)CNC(=O)CCCCNC(=O)CCCCNC(=O)c1ccccc1NC(=O)[C@H](CCCCN)NC(=O)[C@H](Cc1ccc(O)cc1)NC(=O)[C@@H](N)Cc1c[nH]c2ccccc12)C(N)=O [compound 16] (H-WYK[2Abz][Ava][Ava]GRAAGLLSGL-NH2)")
"1.3 nM"

Now consider the entry below.
**Query** Using GPR7 (Homo sapiens, UniProt P48145) as the test system, report measured IC50 of CC(C)C[C@H](NC(=O)CNC(=O)[C@H](CO)NC(=O)[C@H](CC(C)C)NC(=O)[C@H](CC(C)C)NC(=O)CNC(=O)[C@H](C)NC(=O)[C@H](C)NC(=O)[C@H](CCCNC(=N)N)NC(=O)CNC(=O)c1ccccc1NC(=O)CCCCNC(=O)CCCCNC(=O)[C@H](CCCCN)NC(=O)[C@H](Cc1ccc(O)cc1)NC(=O)[C@@H](N)Cc1c[nH]c2ccccc12)C(N)=O [compound 10] (H-WYK[Ava][Ava][2Abz]GRAAGLLSGL-NH2) .
**Result** 4.7 nM

----------
study target: GPR8 (Homo sapiens)
Construct: expressed in transfected cells; host or cells: HEK293/CRE-BLA cells (AURORA), expression vector pIRES-hygro (Clontech)
Sequence (P48146 whole entry): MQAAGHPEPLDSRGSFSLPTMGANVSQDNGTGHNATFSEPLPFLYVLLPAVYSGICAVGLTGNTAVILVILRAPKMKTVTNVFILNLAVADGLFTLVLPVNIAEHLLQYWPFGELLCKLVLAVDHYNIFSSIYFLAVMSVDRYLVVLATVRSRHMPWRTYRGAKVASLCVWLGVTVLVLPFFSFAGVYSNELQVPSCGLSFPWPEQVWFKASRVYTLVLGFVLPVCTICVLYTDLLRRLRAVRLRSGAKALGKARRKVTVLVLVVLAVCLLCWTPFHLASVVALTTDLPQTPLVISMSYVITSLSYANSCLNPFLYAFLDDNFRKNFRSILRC
test protocol: Binding inhibition test with [125I]-[Phe2]-hNPW(1-23), GPR8 membrane preparation
test conditions: Table 1, membrane preparation of HEK293/CRE-BLA cells expressing GPR8, 1 hour at room temperature
Non-standard residues stand in square brackets, D forms with d. Residues, ends and D or L forms follow the SMILES beside them. Ava = NCCCCC(=O)O
endpoint name: IC50
Returns: string containing the number followed by the unit.

>>> value_measured("CC(C)C[C@H](NC(=O)CNC(=O)[C@H](CO)NC(=O)[C@H](CC(C)C)NC(=O)[C@H](CC(C)C)NC(=O)CNC(=O)[C@H](C)NC(=O)[C@H](C)NC(=O)[C@H](CCCNC(=N)N)NC(=O)CNC(=O)CCCCNC(=O)CCCCNC(=O)CCCCNC(=O)CCCCNC(=O)CCCCNC(=O)[C@H](CCCCN)NC(=O)[C@H](Cc1ccc(O)cc1)NC(=O)[C@@H](N)Cc1c[nH]c2ccccc12)C(N)=O [compound 9] (H-WYK[Ava][Ava][Ava][Ava][Ava]GRAAGLLSGL-NH2)")
"2600 nM"
>>> value_measured("CC(C)C[C@H](NC(=O)CNC(=O)[C@H](CO)NC(=O)[C@H](CC(C)C)NC(=O)[C@H](CC(C)C)NC(=O)CNC(=O)[C@H](C)NC(=O)[C@H](C)NC(=O)[C@H](CCCNC(=N)N)NC(=O)CNC(=O)CCCCNC(=O)CCCCNC(=O)[C@H](CCCCN)NC(=O)[C@H](Cc1ccc(O)cc1)NC(=O)[C@@H](N)Cc1c[nH]c2ccccc12)C(N)=O [compound 6] (H-WYK[Ava][Ava]GRAAGLLSGL-NH2)")
"300 nM"

In the following, a different compound is considered.
**Query** Quickly give me recorded IC50 for CC(C)C[C@H](NC(=O)CNC(=O)[C@H](CO)NC(=O)[C@H](CC(C)C)NC(=O)[C@H](CC(C)C)NC(=O)CNC(=O)[C@H](C)NC(=O)[C@H](C)NC(=O)[C@H](CCCNC(=N)N)NC(=O)CNC(=O)[C@@H](NC(=O)[C@H](CO)NC(=O)[C@H](Cc1ccc(O)cc1)NC(=O)[C@H](CO)NC(=O)[C@H](CO)NC(=O)[C@H](Cc1cnc[nH]1)NC(=O)CNC(=O)[C@H](C)NC(=O)[C@H](C)NC(=O)[C@@H]1CCCN1C(=O)[C@H](CCCCN)NC(=O)[C@H](Cc1ccc(O)cc1)NC(=O)[C@@H](N)Cc1c[nH]c2ccccc12)C(C)C)C(N)=O
**Result** 24 nM
